Listed binders paired with reported fold difference in affinity vs original
- target of assay: binding partner (antigen) of C5A (XPA23)
- assay notes: Biacore, K-off, fold vs original
Provide only the numeric value, understood in fold.

The examples below pair each entry with its known result.
# binder, fold difference in affinity vs original, fold
records = [
    ("C5A (XPA23) VH G56A (antibody, V domains shown) VH: EVQLLESGGGLVQPGGSLRLSCAASGFTFSKYFMFWVRQAPGKGLEWVSVISPSGAMTRYADSVKGRFTISRDNSKNTLYLQMNSLRAEDTAVYYCARVGYGGNSDYWGQGTLVTVSS VL: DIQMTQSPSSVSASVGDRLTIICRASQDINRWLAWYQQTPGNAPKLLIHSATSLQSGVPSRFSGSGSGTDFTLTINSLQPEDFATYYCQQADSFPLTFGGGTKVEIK", 1.21),
    ("C5A (XPA23) VH Y101V (antibody, V domains shown) VH: EVQLLESGGGLVQPGGSLRLSCAASGFTFSKYFMFWVRQAPGKGLEWVSVISPSGGMTRYADSVKGRFTISRDNSKNTLYLQMNSLRAEDTAVYYCARVGVGGNSDYWGQGTLVTVSS VL: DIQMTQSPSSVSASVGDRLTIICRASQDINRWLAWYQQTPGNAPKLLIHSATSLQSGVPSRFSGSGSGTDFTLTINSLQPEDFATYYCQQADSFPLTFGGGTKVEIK", 0.09),
]

Now take the following binder into account.
[in] What value of fold difference in affinity vs original has been reported for the following binder? C5A (XPA23) VH G100W (antibody, V domains shown) VH: EVQLLESGGGLVQPGGSLRLSCAASGFTFSKYFMFWVRQAPGKGLEWVSVISPSGGMTRYADSVKGRFTISRDNSKNTLYLQMNSLRAEDTAVYYCARVWYGGNSDYWGQGTLVTVSS VL: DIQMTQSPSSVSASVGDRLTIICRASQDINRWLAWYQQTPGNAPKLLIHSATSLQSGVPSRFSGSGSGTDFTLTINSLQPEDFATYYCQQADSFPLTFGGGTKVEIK
[out] 0.05
